Reported pIC50 values are given for each entry in this list.
- testedSystem: ROCK1 (Homo sapiens (Human))
- Sequence (Q13464 whole entry, species assumed): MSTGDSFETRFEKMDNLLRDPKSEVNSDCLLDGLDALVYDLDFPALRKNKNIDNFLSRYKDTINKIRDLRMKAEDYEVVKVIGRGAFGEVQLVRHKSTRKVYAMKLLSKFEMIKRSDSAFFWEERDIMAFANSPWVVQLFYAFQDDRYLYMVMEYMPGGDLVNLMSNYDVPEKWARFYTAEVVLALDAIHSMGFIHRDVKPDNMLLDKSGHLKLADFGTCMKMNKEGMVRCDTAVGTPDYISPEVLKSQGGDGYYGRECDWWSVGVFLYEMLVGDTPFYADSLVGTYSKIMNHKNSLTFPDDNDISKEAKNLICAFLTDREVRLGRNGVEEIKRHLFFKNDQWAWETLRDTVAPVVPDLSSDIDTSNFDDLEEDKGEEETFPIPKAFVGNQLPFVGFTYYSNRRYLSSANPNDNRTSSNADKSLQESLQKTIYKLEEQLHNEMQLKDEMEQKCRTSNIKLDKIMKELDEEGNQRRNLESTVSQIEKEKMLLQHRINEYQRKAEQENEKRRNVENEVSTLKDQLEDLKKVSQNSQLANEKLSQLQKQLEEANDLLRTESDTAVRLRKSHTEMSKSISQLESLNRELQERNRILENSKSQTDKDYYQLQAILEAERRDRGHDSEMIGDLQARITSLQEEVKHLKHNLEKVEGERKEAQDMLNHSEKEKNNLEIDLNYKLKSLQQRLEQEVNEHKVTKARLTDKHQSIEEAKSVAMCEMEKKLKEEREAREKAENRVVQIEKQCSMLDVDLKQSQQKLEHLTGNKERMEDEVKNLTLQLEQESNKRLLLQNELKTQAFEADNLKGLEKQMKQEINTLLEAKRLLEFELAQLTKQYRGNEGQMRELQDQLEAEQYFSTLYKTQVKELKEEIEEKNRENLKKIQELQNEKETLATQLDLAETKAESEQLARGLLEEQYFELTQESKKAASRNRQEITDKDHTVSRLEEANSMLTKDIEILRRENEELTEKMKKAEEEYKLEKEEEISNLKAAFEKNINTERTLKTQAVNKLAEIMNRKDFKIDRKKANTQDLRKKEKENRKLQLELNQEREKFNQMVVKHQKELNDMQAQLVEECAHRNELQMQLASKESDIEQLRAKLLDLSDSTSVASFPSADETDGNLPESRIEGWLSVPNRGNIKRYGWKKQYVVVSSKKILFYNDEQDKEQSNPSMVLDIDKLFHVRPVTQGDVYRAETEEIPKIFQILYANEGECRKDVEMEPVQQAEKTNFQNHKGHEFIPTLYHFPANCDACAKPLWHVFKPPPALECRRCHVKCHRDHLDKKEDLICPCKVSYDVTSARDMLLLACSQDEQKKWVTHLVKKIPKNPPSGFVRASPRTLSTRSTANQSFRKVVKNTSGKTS
pIC50: −log10 of the molar value.

Previously resolved entries follow.
{"molecularString": "O=C(c1cc2ccc(-c3nccc(Nc4ccc(-c5cn[nH]c5)cc4)n3)cc2[nH]1)N1CCO[C@@H](CO)C1", "readout": "pIC50", "testValue": "< 5.00"}
{"molecularString": "c1cc(Nc2ccc(-c3cn[nH]c3)nc2)nc(-c2ccc3cc(-c4nccs4)[nH]c3c2)n1", "readout": "pIC50", "testValue": "< 5.00"}

Query: Quick one: pIC50 of `CN(CCC#N)C(=O)c1cc2ccc(-c3nccc(Nc4ccc(-c5cn[nH]c5)cc4)n3)cc2[nH]1` ?
Result: < 5.00
